# Experimental system: IRAK4 (Homo sapiens (Human), UniProt Q9NWZ3)
# Sequence (Q9NWZ3 whole entry): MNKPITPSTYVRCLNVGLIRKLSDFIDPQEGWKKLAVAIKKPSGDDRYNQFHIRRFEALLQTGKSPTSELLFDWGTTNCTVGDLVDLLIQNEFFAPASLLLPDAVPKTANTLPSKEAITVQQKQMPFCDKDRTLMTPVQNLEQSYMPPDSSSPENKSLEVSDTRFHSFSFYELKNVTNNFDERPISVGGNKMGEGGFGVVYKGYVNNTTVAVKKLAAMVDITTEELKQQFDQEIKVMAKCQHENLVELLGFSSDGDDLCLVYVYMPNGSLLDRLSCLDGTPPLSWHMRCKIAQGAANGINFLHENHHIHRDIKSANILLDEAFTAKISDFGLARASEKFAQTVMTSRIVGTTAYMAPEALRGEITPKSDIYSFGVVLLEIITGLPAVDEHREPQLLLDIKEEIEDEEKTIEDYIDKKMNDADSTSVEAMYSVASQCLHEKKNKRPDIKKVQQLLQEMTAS
# Measurement protocol: IRAK4 Degradation HTRF Assay
# Assay type: cell-based
# Settings: wild-type Jurkat cells, 4 hrs
Readout name: Dmax (%)

{"columns": ["Compound", "U", "Dmax"],
 "data": [
  ["Cc1ncsc1-c1ccc(CNC(=O)[C@@H]2C[C@@H](O)CN2C(=O)[C@@H](NC(=O)CCCC(=O)N2CCN(c3nnc(-c4cnc(-c5ccc6cc(C#N)cnn56)cc4NC(C)C)s3)CC2)C(C)(C)C)cc1", "%", 100],
  ["CC[C@@H]1[C@H](F)C(=O)N[C@@H]1COc1ncc(C#CCN2CCC3(CC2)CCN(c2ncc(C(=O)N[C@H](C(=O)N4C[C@H](O)C[C@H]4C(=O)NCc4ccc(-c5scnc5C)cc4)C(C)(C)C)cn2)CC3)c2cc(C(N)=O)c(OC)cc12 [Comparative b1, reference compound]", "%", 100],
  ["NC(=O)c1nn(-c2ccc(C(=O)NCCOCCOCCNc3cccc4c3C(=O)N(C3CCC(=O)NC3=O)C4=O)cc2)cc1NC(=O)c1coc(-c2ccnc(NCC(F)(F)F)c2)n1 (stereo not drawn) [Comparative Compound a2, reference compound]", "%", 100]
]}
